Please respond with reported inhibition at 10 µM for every item in the list.
biological target: glucosylceramide synthase (Homo sapiens); construct: made in house; host or cells: Expi293F cells (transient expression, pcDNA3.3-TOPO vector); microsome fraction used as enzyme source; assay: Glucosylceramide synthase (GCS) enzyme assay, microsome fraction, C8 glucosylceramide quantified by Rapidfire MS/MS; type: biochemical; settings: test compound 10 μM; 1.7 μM UDP-glucose, 3 μM C8 ceramide; room temperature 60 min; read-out: GCS enzyme inhibitory rate at 10 μM (%) (% of control)
Sequence (Q16739 whole entry): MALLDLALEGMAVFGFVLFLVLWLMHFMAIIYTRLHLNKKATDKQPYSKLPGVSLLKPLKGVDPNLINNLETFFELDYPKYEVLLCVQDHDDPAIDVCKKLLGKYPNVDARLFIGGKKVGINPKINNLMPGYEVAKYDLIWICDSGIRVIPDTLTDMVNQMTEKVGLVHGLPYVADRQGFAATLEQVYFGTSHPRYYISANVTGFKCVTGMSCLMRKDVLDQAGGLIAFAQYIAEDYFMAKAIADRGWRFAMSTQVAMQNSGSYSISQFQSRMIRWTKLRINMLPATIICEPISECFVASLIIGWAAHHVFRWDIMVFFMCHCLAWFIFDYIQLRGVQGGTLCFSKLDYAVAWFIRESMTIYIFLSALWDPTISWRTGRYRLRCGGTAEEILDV
# number only, unit % dropped from output

-- ask Report inhibition at 10 µM for CC(C)(F)c1cc2c(c(-c3ccc(F)cc3OCC(F)(F)F)n1)CN(c1ccc(F)cc1)C2=O [Example 385] please.
-- reply 99

-- ask Report inhibition at 10 µM for O=C1c2ccnc(-c3ccccc3OC(F)F)c2CN1c1ccc(F)cc1 [Example 28] please.
-- reply 84

-- ask Report inhibition at 10 µM for O=C1c2ccnc(-c3ccccc3OCC(F)(F)F)c2CN1c1ccc(C2(O)CCC2)cc1 [Example 191] please.
-- reply 100

-- ask Report inhibition at 10 µM for CC(C)(C#N)COc1ccc(N2Cc3c(cc(C(C)(C)O)nc3-c3ccccc3OCC(F)F)C2=O)cc1 [Example 362] please.
-- reply 100

-- ask Report inhibition at 10 µM for Fc1ccc(N2Cc3ccnc(-c4ccc(F)cc4OCC(F)(F)F)c3C2)nc1 [Example 169] please.
-- reply 95

-- ask Report inhibition at 10 µM for CC(C)(O)c1cc2c(c(-c3ccccc3OCC(F)F)n1)CN(c1ccc(C(F)F)cc1)C2=O [Example 357] please.
-- reply 100

-- ask Report inhibition at 10 µM for COC(=O)c1ccc(N2CC3=C(OCCN=C3c3ccccc3OCC(F)(F)F)C2=O)cc1 [Example 335] please.
-- reply 95

-- ask Report inhibition at 10 µM for O=C1c2ccnc(-c3ccccc3OCC(F)(F)F)c2CN1c1ccc(C2(O)CCC2)nc1 [Example 203] please.
-- reply 98

-- ask Report inhibition at 10 µM for N#Cc1ccc(N2Cc3ccnc(-c4ccc(F)cc4OCC(F)(F)F)c3C2)nc1 [Example 156] please.
-- reply 94

-- ask Report inhibition at 10 µM for O=C1c2ccnc(-c3ccc(F)cc3OCC(F)(F)F)c2CN1c1ccc(C2(O)CCOC2)cc1 (single isomer, unassigned) [Example 243] please.
-- reply 97

###

biological target: glucosylceramide synthase (Homo sapiens); construct: made in house; host or cells: Expi293F cells (transient expression, pcDNA3.3-TOPO vector); microsome fraction used as enzyme source; test: Glucosylceramide synthase (GCS) enzyme assay, microsome fraction, C8 glucosylceramide quantified by Rapidfire MS/MS; assay type: biochemical; conditions: test compound 10 μM; 1.7 μM UDP-glucose, 3 μM C8 ceramide; room temperature 60 min; read-out: GCS enzyme inhibitory rate at 10 μM (%) (% of control)
observationType: inhibition at 10 µM (%)
# number only, unit % dropped from output

-- ask Report inhibition at 10 µM for CC1(Oc2ccc(N3Cc4c(ccnc4-c4ccccc4OCC(F)(F)F)C3=O)cn2)COC1 [Example 204] please.
-- reply 97

-- ask Report inhibition at 10 µM for O=C1c2ccnc(-c3ccccc3OCC(F)(F)F)c2CN1c1ccc(C2(O)COC2)cn1 [Example 252] please.
-- reply 98

-- ask Report inhibition at 10 µM for CC(O)c1ccc(N2Cc3c(ccnc3-c3ccc(F)cc3OCC(F)(F)F)C2=O)cc1F (racemic) [Example 292] please.
-- reply 99

-- ask Report inhibition at 10 µM for CC(C)(O)c1ccc(N2Cc3c(cc(Br)c(=O)n3-c3ccccc3OCC(F)(F)F)C2=O)cc1 [Example 336] please.
-- reply 98

-- ask Report inhibition at 10 µM for O=C1c2ccnc(-c3ccccc3OCC(F)(F)F)c2CN1c1ccc(C2(O)CNC2)cc1 [Example 259] please.
-- reply 85

-- ask Report inhibition at 10 µM for Cn1cc(N2Cc3c(ccnc3-c3ccc(F)cc3OCC(F)(F)F)C2=O)cn1 [Example 81] please.
-- reply 86

-- ask Report inhibition at 10 µM for CC(C)(O)COc1ccc(N2Cc3c(ccnc3-c3ccc(F)cc3OCC(F)(F)F)C2=O)cc1 [Example 254] please.
-- reply 99

-- ask Report inhibition at 10 µM for CC(C)(O)c1ccc(N2Cc3c(ccnc3-c3cc(F)c(F)cc3OCC(F)(F)F)C2=O)cc1 [Example 322] please.
-- reply 95

-- ask Report inhibition at 10 µM for CC(C)(O)COc1ccc(N2Cc3c(ccnc3-c3ccc(F)cc3OCC(F)(F)F)C2=O)nc1 [Example 255] please.
-- reply 100

-- ask Report inhibition at 10 µM for CC(C)(O)c1ccc(N2Cc3c(ccnc3-c3ccc(F)cc3OCC(F)(F)F)C2=O)cc1 [Example 119] please.
-- reply 100

-- ask Report inhibition at 10 µM for Cc1cc2c(c(-c3ccc(F)cc3OCC(F)(F)F)n1)CN(c1ccc(C3(O)CCOCC3)cc1)C2=O [Example 352] please.
-- reply 100

-- ask Report inhibition at 10 µM for CC(C)(O)COc1cnc(N2Cc3c(ccnc3-c3ccc(F)cc3OCC(F)(F)F)C2=O)cn1 [Example 299] please.
-- reply 97
